# target_or_system: VASP 1-114, P50552
# Sequence (P50552 1-114): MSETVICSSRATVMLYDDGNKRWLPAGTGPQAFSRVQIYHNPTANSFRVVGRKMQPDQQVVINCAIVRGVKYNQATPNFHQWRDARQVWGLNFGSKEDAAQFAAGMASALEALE
experimental_readout: selected by phage display

Please review the following examples before continuing.
binder="LVPPALDLSWIWPAPP [C1orf159, Q96HA4]" result="confidence 3 (active)"
binder="EFPPPPPDVLQTSVDV [XIRP2, A4UGR9]" result="confidence 4 (active)"
binder="SMADFPPPEEAFFSVA [KIAA1522, Q9P206]" result="confidence 2 (active)"
binder="DFPPPPPDLEQLRLTD [VCL, P18206]" result="confidence 2 (active)"
binder="EAFPPPPHFSFPAPLS [SBNO2, Q9Y2G9]" result="confidence 2 (active)"

Please look at the following binder next.
-- ask Looking for the measured selected by phage display of IPSEEWPNPPTLQEAG [FAF2, Q96CS3] , can you help?
-- reply confidence 4 (active)
